Reported Binding Signal (fold over 6E7 Parental antibody) values for a set of binders
- study.system: T1, human TREM2 (human, UniProt Q9NZC2 19-174, limits assumed)
- T1 construct: also called triggering receptor expressed on myeloid cells 2
- T1 sequence: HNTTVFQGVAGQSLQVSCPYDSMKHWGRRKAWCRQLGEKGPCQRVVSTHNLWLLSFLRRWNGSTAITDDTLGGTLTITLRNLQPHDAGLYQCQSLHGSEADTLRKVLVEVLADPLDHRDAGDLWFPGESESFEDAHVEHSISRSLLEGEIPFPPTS
- protocol.text: 2nd screen 100 nM
Numeric only. Scale: fold

// V11 (antibody, V domains shown) VH: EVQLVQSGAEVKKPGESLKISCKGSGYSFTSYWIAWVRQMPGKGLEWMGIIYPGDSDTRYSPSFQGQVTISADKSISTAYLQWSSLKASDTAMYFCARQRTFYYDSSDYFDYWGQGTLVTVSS VL: DIQMTQSPSSVSASVGDRVTITCRASQGISSWLAWYQQKPGKAPKLLIYAASSLQNGVPSRFSGSGSGTDFTLTISSLQPEDFATYFCQQAASFPRTFGQGTKLEIK : Binding Signal (fold over 6E7 Parental antibody) value = 0.42

Binding Signal (fold over 6E7 Parental antibody) for V44 (antibody, V domains shown) VH: EVQLVQSGAEVKKPGESLKISCKGSGYSFTSYWIAWVRQMPGKGLEWMGIIYPSDSDTRYSPSFQGQVTISADKSISTAYLQWSSLKASDTAMYFCARQRTFYYDSSDYFDYWGQGTLVTVSS VL: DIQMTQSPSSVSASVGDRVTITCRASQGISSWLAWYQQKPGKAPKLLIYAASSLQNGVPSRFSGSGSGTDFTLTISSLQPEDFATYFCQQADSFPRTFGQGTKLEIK is 0.52

Consider V55 (antibody, V domains shown) VH: EVQLVQSGAEVKKPGESLKISCKGSGYSFTSYWIAWVRQMPGKGLEWMGIIYPGDSDTIYSPSHQGQVTISADKSISTAYLQWSSLKASDTAMYFCARQRTFYYDSSDYFDYWGQGTLVTVSS VL: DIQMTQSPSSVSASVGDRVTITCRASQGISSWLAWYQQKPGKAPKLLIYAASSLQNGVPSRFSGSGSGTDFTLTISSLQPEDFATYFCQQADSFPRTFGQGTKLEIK . Its measured Binding Signal (fold over 6E7 Parental antibody) is 0.66

Entry under test: V30 (antibody, V domains shown) VH: EVQLVQSGAEVKKPGESLKISCKGSGSSFTSYWIAWVRQMPGKGLEWMGIIYPGDSDTRYSPSFQGQVTISADKSISTAYLQWSSLKASDTAMYFCARQRTFYYDSSDYFDYWGQGTLVTVSS VL: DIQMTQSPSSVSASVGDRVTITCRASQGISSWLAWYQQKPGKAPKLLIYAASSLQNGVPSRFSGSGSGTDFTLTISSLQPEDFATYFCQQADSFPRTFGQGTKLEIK . Its Binding Signal (fold over 6E7 Parental antibody) was 0.72

Documented Binding Signal (fold over 6E7 Parental antibody) of V18 (antibody, V domains shown) VH: EVQLVQSGAEVKKPGESLKISCKGSGYSFTSYHIAWVRQMPGKGLEWMGIIYPGDSDTRYSPSFQGQVTISADKSISTAYLQWSSLKASDTAMYFCARQRTFYYDSSDYFDYWGQGTLVTVSS VL: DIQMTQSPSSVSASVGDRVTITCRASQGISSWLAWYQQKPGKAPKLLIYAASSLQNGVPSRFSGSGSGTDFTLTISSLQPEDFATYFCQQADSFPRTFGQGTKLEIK : 0.42

What the record says about V71 (antibody, V domains shown) VH: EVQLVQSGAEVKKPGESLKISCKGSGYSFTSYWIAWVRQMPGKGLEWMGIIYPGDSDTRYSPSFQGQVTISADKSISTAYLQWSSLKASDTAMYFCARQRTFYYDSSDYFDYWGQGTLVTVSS VL: DIQMTQSPSSVSASVGDRVTITCRASQGISSWLAWYQQKPGKAPKLLIYAASSLQNGVPSRFSGSGSGTDFTLTISSLQPEDFATYFCQQADSEPRTFGQGTKLEIK : Binding Signal (fold over 6E7 Parental antibody) is 0.48

Field Binding Signal (fold over 6E7 Parental antibody) (entry V7 (antibody, V domains shown) VH: EVQLVQSGAEVKKPGESLKISCKGSGYSFTSEWIAWVRQMPGKGLEWMGIIYPGDSDTRYSPSFQGQVTISADKSISTAYLQWSSLKASDTAMYFCARQRTFYYDSSDYFDYWGQGTLVTVSS VL: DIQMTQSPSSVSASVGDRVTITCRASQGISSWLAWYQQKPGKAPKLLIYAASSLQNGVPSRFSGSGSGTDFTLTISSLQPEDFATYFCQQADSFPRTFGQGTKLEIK ) reads 0.32

Source listed as patent US20250282866A1.
